target: Rho-associated protein kinase 2 (Homo sapiens); experiment: Inhibition of human ROCK2 by IMAP assay
Sequence (O75116 whole entry): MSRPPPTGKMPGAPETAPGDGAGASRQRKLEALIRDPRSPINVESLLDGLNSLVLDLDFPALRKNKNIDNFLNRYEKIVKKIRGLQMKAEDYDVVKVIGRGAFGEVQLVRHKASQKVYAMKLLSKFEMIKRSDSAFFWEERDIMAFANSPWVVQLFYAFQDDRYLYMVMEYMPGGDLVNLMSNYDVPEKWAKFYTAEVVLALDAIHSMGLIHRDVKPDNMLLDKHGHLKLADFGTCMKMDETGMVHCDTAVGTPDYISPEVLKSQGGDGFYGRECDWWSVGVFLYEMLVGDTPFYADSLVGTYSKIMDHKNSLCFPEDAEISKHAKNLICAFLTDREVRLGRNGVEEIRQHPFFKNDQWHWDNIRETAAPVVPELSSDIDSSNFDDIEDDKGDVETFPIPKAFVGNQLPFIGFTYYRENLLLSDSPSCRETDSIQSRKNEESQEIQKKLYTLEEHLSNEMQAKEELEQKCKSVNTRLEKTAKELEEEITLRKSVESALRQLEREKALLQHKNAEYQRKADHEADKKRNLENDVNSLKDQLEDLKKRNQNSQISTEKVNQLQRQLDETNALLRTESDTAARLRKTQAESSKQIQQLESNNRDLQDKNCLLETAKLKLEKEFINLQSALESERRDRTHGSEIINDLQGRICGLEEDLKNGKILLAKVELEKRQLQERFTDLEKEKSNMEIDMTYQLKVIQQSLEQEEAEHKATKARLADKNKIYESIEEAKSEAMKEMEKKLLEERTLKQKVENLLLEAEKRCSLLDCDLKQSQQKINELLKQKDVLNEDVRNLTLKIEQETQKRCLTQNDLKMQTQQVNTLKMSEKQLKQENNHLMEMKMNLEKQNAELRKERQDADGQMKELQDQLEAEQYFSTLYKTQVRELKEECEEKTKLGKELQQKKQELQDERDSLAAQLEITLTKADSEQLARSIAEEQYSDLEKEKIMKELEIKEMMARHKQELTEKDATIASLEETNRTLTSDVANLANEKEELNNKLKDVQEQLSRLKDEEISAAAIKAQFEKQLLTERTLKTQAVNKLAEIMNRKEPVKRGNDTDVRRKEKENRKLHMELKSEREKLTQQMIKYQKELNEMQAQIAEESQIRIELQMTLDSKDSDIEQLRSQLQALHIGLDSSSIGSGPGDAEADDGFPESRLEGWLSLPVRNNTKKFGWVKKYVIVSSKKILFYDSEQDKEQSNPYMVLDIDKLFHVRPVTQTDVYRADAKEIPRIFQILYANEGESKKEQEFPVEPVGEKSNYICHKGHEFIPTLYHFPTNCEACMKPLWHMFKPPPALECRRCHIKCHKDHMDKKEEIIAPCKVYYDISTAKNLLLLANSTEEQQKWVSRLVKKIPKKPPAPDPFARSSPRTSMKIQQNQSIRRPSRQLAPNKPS
EXPERIMENTAL READOUT: IC50

Solved cases below.
[[record]]
smiles_string = "COc1cccc(C(=O)NCc2cccc(C(=O)Nc3ccc(CN(C)C)cc3)c2)c1"
reported_measurement = "> 7 µM"

[[record]]
smiles_string = "CN(C)Cc1ccc(NC(=O)c2cccc(CNC(=O)c3ccc(C#N)cc3)c2)cc1"
reported_measurement = "> 6.5 µM"


Query: IC50; subject: CN(C)Cc1ccc(NC(=O)c2cccc(CNC(=O)c3ccc(O)c(O)c3)c2)cc1
> 6.4 µM

Query: IC50; subject: COc1ccc(C(=O)NCc2cccc(C(=O)Nc3ccc(CN(C)C)cc3)c2)cc1
> 6.5 µM
